TARGET_UNDER_TEST: Gamma-butyrobetaine dioxygenase (Homo sapiens, UniProt O75936)
Sequence (O75936 whole entry): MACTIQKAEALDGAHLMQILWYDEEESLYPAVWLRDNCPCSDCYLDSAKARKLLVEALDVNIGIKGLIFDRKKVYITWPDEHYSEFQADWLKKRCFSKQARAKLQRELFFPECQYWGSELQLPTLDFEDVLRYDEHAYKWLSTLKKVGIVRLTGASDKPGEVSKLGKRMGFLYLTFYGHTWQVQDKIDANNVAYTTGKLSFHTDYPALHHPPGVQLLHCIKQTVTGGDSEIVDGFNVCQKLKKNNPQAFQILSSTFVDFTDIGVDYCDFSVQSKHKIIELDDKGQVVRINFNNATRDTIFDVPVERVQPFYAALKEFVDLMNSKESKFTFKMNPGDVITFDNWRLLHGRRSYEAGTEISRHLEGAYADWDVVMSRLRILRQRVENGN
PROCEDURE_DETAILS: Inhibition of human BBOX pre-incubated for 1 min using TBS-protected fluorescein probe and Fe (II) (Fe(NH4)2(SO4)2 salt by fluoride release assay
VALUE_KIND: pIC50
Just so you know, pIC50 here is -log10 of the concentration in molar units; reply with that number alone.

Prompt: Find the recorded pIC50 belonging to `Cl[Se]c1ccccc1` and report it.
Response: 5.29

Prompt: And `O=[Se](O)c1ccccc1` ?
Response: 4.46

Prompt: And `O=c1c2ccccc2[se]n1-c1ccccc1` ?
Response: 6.16

Prompt: And `Br[Se]c1ccccc1` ?
Response: 5.15

Prompt: And `O=C(O)CNC(=O)c1nc(Cl)c2ccccc2c1O` ?
Response: 4.44

Prompt: And `c1ccc([Se][Se]c2ccccc2)cc1` ?
Response: 4.26

Prompt: And `O[Se]c1ccccc1` ?
Response: 4.27

Prompt: And `CN(C)C(=S)SSC(=S)N(C)C` ?
Response: 4.25

----------
TARGET_UNDER_TEST: UniProt:O75936
Sequence (O75936 whole entry): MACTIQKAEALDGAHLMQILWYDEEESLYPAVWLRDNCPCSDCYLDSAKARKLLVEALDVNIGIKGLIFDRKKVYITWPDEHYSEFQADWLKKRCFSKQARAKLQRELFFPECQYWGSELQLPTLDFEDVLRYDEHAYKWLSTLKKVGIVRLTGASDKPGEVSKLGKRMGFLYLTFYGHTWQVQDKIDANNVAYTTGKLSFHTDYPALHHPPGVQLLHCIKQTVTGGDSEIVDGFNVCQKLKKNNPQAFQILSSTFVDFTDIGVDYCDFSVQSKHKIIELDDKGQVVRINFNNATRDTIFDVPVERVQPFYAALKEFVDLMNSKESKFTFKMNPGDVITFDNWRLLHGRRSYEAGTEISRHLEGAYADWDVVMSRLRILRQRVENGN
PROCEDURE_DETAILS: Inhibition of human BBOX pre-incubated for 15 mins using TBS-protected fluorescein probe and Fe (II) (Fe(NH4)2(SO4)2 salt by fluoride release assay
pIC50: −log10 of the molar value.
Returns t if the recorded pIC50 is greater than or equal to 5, and f otherwise.

Prompt: Please indicate if the recorded pIC50 for `c1ccc([Se][Se]c2ccccc2)cc1` meets or exceeds 5.
Response: f

Prompt: And `Cl[Se]c1ccccc1` ?
Response: t

Prompt: And `O=[Se](O)c1ccccc1` ?
Response: t

Prompt: And `Br[Se]c1ccccc1` ?
Response: t

Prompt: And `O=c1c2ccccc2[se]n1-c1ccccc1` ?
Response: t

Prompt: And `CN(C)C(=S)SSC(=S)N(C)C` ?
Response: f

Prompt: And `O[Se]c1ccccc1` ?
Response: f
